test.name: yeast display, Sf9 membrane polyspecificity reagent, FACS + sequencing; frameworks hold sequencing errors
parameter: polyreactivity (PSR sort gate)

// known answers, use as guide
Look up polyreactivity (PSR sort gate): QVQLVESGGGLVQAGGSLRLSCAATGRIFWDYAMGWYRQAPGKERELVAANAWGSGRTYYADSVKGRFTISRDNAKNTVNLQMNSLKPEDTAVYYCHAVRYLFIYPRYDYWGQGTQVTVSS
high polyreactivity

Look up polyreactivity (PSR sort gate): QVQLVESGGGLVQAGGSLRLSCAASGRIFHFYVMGWYRQAPGKERELVASITRGGNTNYADSVKGRFTISRDNAKNTVYLQMNSLKPEDTAVYYCNGEGYYTRDDSWGQGTQVTVSS
low polyreactivity

Look up polyreactivity (PSR sort gate): QVQLVESGGGLVQAGGSLRLSCAASGRIFSYNAMGWYRPAPGKERELVASISWSGGRTYYADSVKGRFTISRDNAKNTVYLQMNSLKPEDTAVYYCAVRYRGYGYDWGQGTQVTVSS
high polyreactivity

Look up polyreactivity (PSR sort gate): QVQLVESGGGLVQAGGSLRLSCADSGRIFRYYAMGWYRQAPGKERELVAAITWSGGTTIYADSVKGRFSISRDNAKNTVYLQMNSLKPEDTAVYYCNAARSRGANLVPPYRLYYWGQGTQVTVSS
low polyreactivity

Now for a further sequence.
Look up polyreactivity (PSR sort gate): QVQLVESGGGLVQAGGSLRFSCAASGRIYYNAMGWYRQAPGKERELVAAISGSGTRTYYADSVKGRFTISRDNAKNTVFLQMNSLKPEDTAVYYCNAKFFLAATTRYYYWGQGTQVTVSS
high polyreactivity
